For each of the molecules below, state its composite z-score.
target: Follistatin (Homo sapiens); experiment: follistatin binders on small-molecule microarrays, primary screen, biochemical, small-molecule microarray, 635/667 nm fluorescence (AID 1132); conditions: FST binding, 635 nm fluorescence, higher = more signal
Keep it simple and answer with nothing but the number.

Ask | What value of composite z-score has been reported for the following molecule? COCCOC(=O)N1C(=O)[C@@]2(c3cc(C#CCCO)ccc31)[C@H](c1ccc(O)cc1)N1[C@H](c3ccccc3)[C@H](c3ccccc3)OC(=O)[C@H]1[C@@H]2C(=O)Nc1nc2ccccc2s1
Reply | 1.27

Ask | So what does the record say about composite z-score for CC(C)[Si]1(C(C)C)O[C@@H](c2ccccc2)c2cc(C3CC3)nc(-c3ccc(Oc4ccccc4)cc3)c21 ?
Reply | -0.591

Ask | Entry CCOC(=O)C1=C[C@@H](c2ccccc2)N(S(=O)(=O)c2ccc(C)cc2)[C@H]1c1ccc(F)cc1 : reported composite z-score = ?
Reply | 1.06

Ask | GET /values?readout=composite z-score&item= CO[C@H]1COC(=O)CC=C[C@H](C)[C@@H](OC)COC(=O)[C@H](Cc2ccccc2)NC(=O)CC=C[C@@H]1C
Reply | 1.42

Ask | Given the entry C[N+](C)(C)CCCCNC(=O)[C@@H]1C[C@@H]2C(=O)N3CCC[C@H]3C(=O)N2[C@@H]1c1cccc(OCCO)c1 , report its measured composite z-score.
Reply | 1.39

Ask | Give the measured composite z-score of C=C(CCCC)/C(=C/C[C@@H](OC(=O)c1ccncc1)c1ccc(CO)o1)c1cnc2ccccc2c1 .
Reply | 1.46

Ask | Could you share which composite z-score value was measured for CC(C)=C1C(=O)C(c2ccccc2)=C2CN3C(=O)N(CCc4ccccc4)C(=O)[C@]3(Cc3ccccc3)[C@H]21 ?
Reply | -1.04

Ask | # get_value(readout='composite z-score', item= CCOC(=O)C1=CC[C@@H](c2ccc(-c3ccc(OCc4ccccc4)cc3)c(OC)c2)N(S(=O)(=O)c2ccc(C)cc2)[C@H]1c1ccccc1 )
Reply | 1.2

Ask | // lookup composite z-score for Cc1ccc(S[C@]2(C(=O)NC3CC3)CC(=O)N(Cc3cc(C(F)(F)F)cc(C(F)(F)F)c3)[C@@H]2c2ccc(CO)cc2)cc1
Reply | 1.2

Ask | What value of composite z-score has been recorded for this entry: O=C(NCc1ccccc1)[C@@]1(Cc2ccccc2)COC(c2ccc(OCCCO)cc2)=N1
Reply | 0.0985

Ask | Query: composite z-score; subject: CCOC(=O)C[C@H]1[C@H](OC(=O)Cc2ccc3c(c2)OCO3)[C@@H](NC(=O)CC(C)C)c2cc(OCCCO)ccc2N1C(=O)c1ccccc1
Reply | 0.45

Ask | Look up composite z-score for this molecule: COc1ccc([Si](C)(C)[C@@H]2[C@@H](CC(=O)N(CCO)Cc3ccccc3)O[C@]3(C(=O)N(Cc4cccc(N5CCC5=O)c4)c4ccccc43)[C@H]2C)cc1
Reply | 1.3

Ask | Form field: reported composite z-score of C[C@]1(C(=O)NCc2ccccc2)c2ccccc2C(=O)N(Cc2cc(C(F)(F)F)cc(C(F)(F)F)c2)[C@H]1c1ccc(CO)cc1
Reply | 1.34

Ask | Recorded composite z-score of C=C(COC)/C(=C/C[C@H](OC(C)=O)c1ccc(OCCO)cc1)c1cnc2ccccc2c1 , please.
Reply | 1.4

---

test: small-molecule microarray binders of probe aDKK1, primary screen, biochemical, biotinylated probe, 635/667 nm fluorescence (AID 1099); settings: higher = more signal;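 note: score merges 667nm spot fluorescence with signal to noise across triplicate slides; reference of the scale not given here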
Property Measured: composite z-score
Response field accepts a number only; no unit should be typed.

Ask | Quick one: composite z-score for N#Cc1ccc(NN2C(C(O)c3ccc(I)cc3)C=CC3C(=O)N(c4ccccc4)C(=O)C32)cc1 (stereo not given) ?
Reply | 0.124

Ask | // returns reported composite z-score for input CC[C@@H]1C=C(C(=O)O)[C@H](c2ccccc2)N1S(=O)(=O)c1ccc([N+](=O)[O-])cc1
Reply | -0.255

Ask | Please report the recorded composite z-score for O=C1OCCC/C=C\[C@H]2OC34C=CCN(CCN5CCOCC5)C(=O)[C@H]3N(CCCCCO)C(=O)[C@@H]4C12 (stereo not given in full) .
Reply | -0.413

Ask | # composite z-score lookup, item C[C@]1(C(=O)NCc2ccccc2)c2ccccc2C(=O)N(Cc2cc(C(F)(F)F)cc(C(F)(F)F)c2)[C@H]1c1ccc(CO)cc1
Reply | 0.698

Ask | Would you kindly share the measured composite z-score for CO[C@H]1COC(=O)[C@@H](C)COC(=O)[C@H](Cc2ccccc2)NC(=O)CC=C[C@H]1C ?
Reply | -0.416

Ask | Could you share which composite z-score value was measured for COc1cccc([C@@H]2[C@@H](C)CC[C@H]3C(=O)N4[C@H](c5cccc(OC)c5)[C@@H](C)CC[C@H]4C(=O)N23)c1 ?
Reply | -0.271

Ask | Could you share which composite z-score value was measured for C=C(CCCC)/C(=C/C[C@@H](OC(=O)c1ccncc1)c1cccc(OCCO)c1)c1cc(C(=O)OC)ccc1OC ?
Reply | -0.0661

Ask | Which composite z-score value is on record for CC(C)(C)OC(=O)CC[C@]1(C(=O)N2CCCCC2)N=C(c2ccc(OCCCO)cc2)O[C@H]1c1ccccc1 ?
Reply | 0.464

Ask | Please report the recorded composite z-score for CCN1C(C)=C(C(=O)OC)[C@@H](c2ccccc2)N2C(=O)[C@@]3(C(=O)OC)O[C@@]12[C@@H]1C(=O)N(c2ccccc2)C(=O)[C@@H]13 .
Reply | 0.0355

Ask | Field request: composite z-score | item: C=C(COC)C(=O)CC[C@H](OC(=O)c1ccccc1-c1ccccc1C(=O)O)c1cccc(OCCO)c1
Reply | -0.0615

Ask | Fill in: composite z-score of Cc1ccc(S[C@]2(C(=O)NCCCN(C)C)CC(=O)N(Cc3ccccc3)[C@@H]2c2ccc(CO)cc2I)cc1 is ___
Reply | 1.09

Ask | Query: composite z-score; subject: CCN1C(C)=C(C(=O)OC)[C@@H](c2ccccc2)N2C(=O)[C@@]3(C(=O)OC)O[C@@]12[C@@H]1C(=O)CCC[C@@H]13
Reply | -0.786

Ask | Please look up its composite z-score: O=C1C[C@@](C(=O)NCCN2CCOCC2)(c2ccc([N+](=O)[O-])cc2)[C@@H](c2ccc(CO)cc2)N1C1CCCCC1
Reply | 0.653

Ask | What value of composite z-score has been reported for the following molecule? COc1ccc(C(=O)Nc2ccc(CN3C(=O)[C@]4(O[C@H](CCn5cc(CCO)nn5)[C@@H]([Si](C)(C)c5ccc(OC)cc5)[C@@H]4C)c4ccccc43)cc2)cc1
Reply | 0.3

Ask | Dear colleague, I am looking for the recorded composite z-score of the following molecule: COc1cc2c(cc1OC)CN(C(=O)[C@H]1[C@@H]3C(=O)O[C@@H](c4ccccc4)[C@@H](c4ccccc4)N3[C@@H](c3ccc(O)cc3)[C@]13C(=O)Nc1ccc(C#CC4(O)CCCCCC4)cc13)CC2
Reply | 0.458

---

target: NADPH oxidase 2 (Homo sapiens) (UniProt P04839); assay: NOX2-dependent H2O2 signal modulators, primary screen, NOX inhibitor project, cell-based, HEK293-NOX2, PMA-stimulated, Amplex Red fluorescence (AID 1159); settings: 45 min, higher = more signal, called active from +8 up or from −8 down; note: test concentration not given here
Sequence (P04839 whole entry, looked up): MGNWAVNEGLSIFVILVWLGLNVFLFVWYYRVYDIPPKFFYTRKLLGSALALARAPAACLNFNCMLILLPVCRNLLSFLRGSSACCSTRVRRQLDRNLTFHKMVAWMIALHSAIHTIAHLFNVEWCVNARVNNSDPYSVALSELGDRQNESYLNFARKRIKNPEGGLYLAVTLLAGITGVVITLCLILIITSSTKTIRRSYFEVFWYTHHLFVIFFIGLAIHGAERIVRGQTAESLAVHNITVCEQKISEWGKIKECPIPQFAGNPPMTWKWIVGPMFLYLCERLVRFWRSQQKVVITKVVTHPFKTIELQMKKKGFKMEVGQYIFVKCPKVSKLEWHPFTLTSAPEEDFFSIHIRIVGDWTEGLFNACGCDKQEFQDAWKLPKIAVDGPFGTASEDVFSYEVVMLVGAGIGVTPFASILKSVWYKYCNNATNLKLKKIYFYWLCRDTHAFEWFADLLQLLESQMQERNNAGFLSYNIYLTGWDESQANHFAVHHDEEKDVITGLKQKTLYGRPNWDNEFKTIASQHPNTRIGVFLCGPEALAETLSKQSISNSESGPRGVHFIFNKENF
Provide the reported z-score of each item.
// no unit string in output, number only

Ask | Fill in the blank: the reported z-score of [N-]=[N+]=NCc1ccccc1C[C@]1(C(=O)N2CCCCC2)N=C(c2ccc(OCCCO)cc2)O[C@H]1c1ccccc1CN=[N+]=[N-] is ____.
Reply | 0.545

Ask | What z-score value was documented for this compound, C=CCC(OC(C)=O)[C@@H]1[C@@H](N(Cc2cccc3ccccc23)C(=O)c2ccc(C)cc2)c2cc(OCCCO)ccc2N1C(=O)c1ccc(-c2ccccc2)cc1 (stereo partly drawn) ?
Reply | -0.0559

Ask | Look up z-score for this compound: COCCOC(=O)N1C(=O)[C@@]2(c3ccccc31)[C@H](C(=O)N1CCc3cc(OC)c(OC)cc3C1)[C@H]1C(=O)O[C@H](c3ccccc3)[C@H](c3ccccc3)N1[C@@H]2c1ccccc1OCCO
Reply | 2.12

---

assay: binders of probe aFGF2 on microarray, primary screen, stem cell growth factor project, biochemical, small-molecule microarray, fluorescence 635/667 (AID 1067); details: higher = more signal;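 note: measures binding of biotinylated aFGF2 protein to printed compounds on slides; z-score merges feature fluorescence and signal-to-noise across triplicate slides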
I'd be grateful if you could share measured composite z-score for these entries.
Please reply with the number alone, leaving off any unit.

Ask | State the recorded composite z-score for this entry: CO[C@H]1O[C@H](CO)[C@@H](OC(=O)Nc2ccc3c(c2)OCO3)[C@H](OC(=O)Nc2ccccc2)[C@@H]1OC(=O)Nc1ccccc1
Reply | 0.0654

Ask | Quick one: composite z-score of COCCOC(=O)N1C(=O)[C@@]2(c3cc(C#CC4=CCCCC4)ccc31)[C@H](c1ccc(O)cc1)N1[C@H](c3ccccc3)[C@H](c3ccccc3)OC(=O)[C@H]1[C@@H]2C(=O)N1CCCCCCC1 ?
Reply | -0.06

Ask | Fill in: composite z-score of CCCC=C(CCC)[C@@H](NC(=O)c1ccc(C(F)(F)F)cc1)c1ccccc1 is ___
Reply | -0.0483

Ask | # query: composite z-score of entry C[C@@H]1NC(=O)[C@H](Cc2ccccc2)NC(=O)[C@@]23C(=O)N[C@@H](Cc4ccccc4)C2[C@H](C)[C@@]2(C)O[C@H]2C3/C=C/C/C=C\CNC1=O (some centres undefined)
Reply | -0.111

Ask | Form field: reported composite z-score of COCCOC(=O)N1C(=O)[C@@]2(c3cc(C#CC4(O)CCCCCC4)ccc31)[C@H](C(=O)N1CCCCCCC1)[C@H]1C(=O)O[C@H](c3ccccc3)[C@H](c3ccccc3)N1[C@@H]2c1ccc(O)cc1
Reply | 0.416

Ask | Which composite z-score reading was recorded for the compound C=C(COC)/C(=C/C[C@H](OC(C)=O)c1ccc(OCCO)cc1)c1cnc2ccccc2c1 ?
Reply | 0.0001

Ask | For O=C(CS)NCCCCCCNC(=O)[C@@H]1C[C@@H]2C(=O)N[C@@H](Cc3ccccc3)C(=O)N2[C@@H]1c1ccc(O)cc1 , what is its reported composite z-score?
Reply | -0.083

Ask | What composite z-score value was documented for this compound, CCOC(=O)C[C@H]1[C@H](OC(=O)Cc2ccc3c(c2)OCO3)[C@@H](NC(=O)CC(C)C)c2cc(OCCCO)ccc2N1C(=O)c1ccccc1 ?
Reply | 0.0021

Ask | Which composite z-score is listed for CCCC=C(CCC)[C@@H](NS(=O)(=O)c1cccc(C(F)(F)F)c1)c1ccc(C(=O)OC)cc1 ?
Reply | 0.731

Ask | // returns reported composite z-score for input COCCCNC(=O)[C@@]1(c2ccc([N+](=O)[O-])cc2)CC(=O)N(C2CCCCC2)[C@@H]1c1ccc(CO)cc1
Reply | -0.248

Ask | # input compound: CCCCCCc1nc(-c2cc(C)c(OC)c(C)c2)cc2c1[Si](C(C)C)(C(C)C)O[C@H]2c1ccccc1 ; wanted: its composite z-score
Reply | -0.14

Ask | Which composite z-score value belongs to O=C(O)[C@@H]1Cc2c([nH]c3ccccc23)[C@@H](c2ccccc2)N1 ?
Reply | -0.109

Ask | Data request, read-out composite z-score, for NC(=O)[C@H]1[C@@H]2C(=O)O[C@@H](c3ccccc3)[C@@H](c3ccccc3)N2[C@@H](c2ccc(O)cc2)[C@]12C(=O)Nc1ccc(C#CCCO)cc12
Reply | -0.12

Ask | Query (compound): O=C1C2C=CC(C(O)Cc3ccccc3)N(Nc3ccc([N+](=O)[O-])cc3)C2C(=O)N1c1ccccc1 (centres undefined) ; field requested: composite z-score
Reply | -0.06

Ask | For the compound shown here, COCC(=C=CC[C@H](O)c1ccc(OCCO)cc1)C[C@H](O)c1ccccn1 , give the reported composite z-score.
Reply | -0.156

Ask | Any idea what composite z-score was measured for C[N+](C)(C)CCCCNC(=O)[C@H]1C[C@H]2C(=O)NCC(=O)N2[C@H]1c1cccc(OCCO)c1 ?
Reply | -0.0375

Ask | What value of composite z-score has been reported for the following compound? COc1ccc(-c2ccccc2[C@@H]2N[C@H](C(=O)O)CC[C@H]2C)cc1
Reply | -0.132

Ask | # composite z-score lookup, item C[C@H]1C2[C@H](Cc3ccccc3)NC(=O)[C@]23C(=O)N[C@H](Cc2ccccc2)C(=O)N[C@@H](Cc2ccccc2)C(=O)NC/C=C\C/C=C/C3[C@@H]2O[C@]12C (some centres undefined)
Reply | -0.147

Ask | Endpoint output: composite z-score of O=C(NCc1ccccc1)c1ccc(Br)cc1[N+](=O)[O-] . Value?
Reply | -0.138

Ask | Give its composite z-score value. Item: COCCOC(=O)N1C(=O)[C@@]2(c3cc(C#CCC(C(=O)OC)C(=O)OC)ccc31)[C@H](C(=O)N1CCN(c3ncccn3)CC1)[C@H]1C(=O)O[C@H](c3ccccc3)[C@H](c3ccccc3)N1[C@@H]2c1ccc(O)cc1
Reply | 0.0051

Ask | Dear colleague, I am looking for the recorded composite z-score of the following compound: CN1CCC(CCCO)=CC1C1CC1 (centres undefined)
Reply | -0.199

Ask | What measured composite z-score goes with CCC#CCN(Cc1ccccc1Br)[C@H](/C=C/c1ccccc1)[C@@H](O)Cc1ccccc1 ?
Reply | -0.176

Ask | Could you tell me which composite z-score is on file for CO[C@H]1O[C@H](CO)[C@@H](OC(=O)Nc2ccc(Oc3ccccc3)cc2)[C@H](OC(=O)Nc2ccccc2-c2ccccc2)[C@H]1OC(=O)Nc1ccccc1-c1ccccc1 ?
Reply | 0.104

Ask | # lookup: composite z-score of CN(C)C(=O)[C@@]1(Cc2ccccc2N=[N+]=[N-])N=C(c2ccc(OCCCO)cc2)O[C@H]1c1ccccc1CN=[N+]=[N-]
Reply | 0.0914

Ask | Recorded composite z-score of COC(=O)Cn1c(C(=O)N2CCCC2)cc2c1C[C@H]1CN(C(=O)c3ccccc3)[C@@](Cc3ccc(OC)cc3)(C(=O)OC)[C@@H]21 , please.
Reply | 0.236

Ask | // composite z-score lookup, key: C=CCc1cccc([C@H]2N[C@H](C(=O)O)CC[C@@H]2C)c1
Reply | -0.221

Ask | Endpoint output: composite z-score of COc1ccc(CCNC(=O)[C@@]2(c3ccc([N+](=O)[O-])cc3)CC(=O)N(C(C)C)[C@@H]2c2ccc(CO)cc2)cc1 . Value?
Reply | -0.116

Ask | Data request, read-out composite z-score, for NC(=O)NCC#Cc1ccc2c(c1)[C@]1(C(=O)N2)[C@H](C(N)=O)[C@H]2C(=O)O[C@H](c3ccccc3)[C@H](c3ccccc3)N2[C@@H]1c1ccccc1OCCO
Reply | 0.0143

Ask | Which composite z-score value is on record for O=[N+]([O-])c1ccc(C[n+]2ccc3ccc(O)cc3c2)o1 ?
Reply | -0.146
